Biological target: UniProt:P18031
measured-metric: pIC50
The scale used: pIC50 is minus the common logarithm of the concentration in molar units.

Example molecules with recorded pIC50:
{"columns": ["compound", "measurement-target", "measured-metric", "recorded-measurement"],
 "data": [
  ["Oc1ccc([C@@H]2Oc3ccc(/C=C/c4cc(O)cc(O)c4O)cc3[C@H]2c2cc(O)cc(O)c2O)cc1", "UniProt:P18031", "pIC50", 5.72],
  ["Oc1ccc(/C=C/c2cc(O)cc(O)c2O)cc1", "UniProt:P18031", "pIC50", 4.92]
]}

**Q:** Would you please give the reported pIC50 of Oc1ccc([C@H]2Oc3ccc(/C=C/c4cc(O)cc(O)c4O)cc3[C@@H]2c2cc(O)cc(O)c2O)cc1 with UniProt:P18031?
**A:** 5.68

----------
Target: Tyrosine-protein phosphatase non-receptor type 1 (Homo sapiens, UniProt P18031)
Sequence (P18031 whole entry): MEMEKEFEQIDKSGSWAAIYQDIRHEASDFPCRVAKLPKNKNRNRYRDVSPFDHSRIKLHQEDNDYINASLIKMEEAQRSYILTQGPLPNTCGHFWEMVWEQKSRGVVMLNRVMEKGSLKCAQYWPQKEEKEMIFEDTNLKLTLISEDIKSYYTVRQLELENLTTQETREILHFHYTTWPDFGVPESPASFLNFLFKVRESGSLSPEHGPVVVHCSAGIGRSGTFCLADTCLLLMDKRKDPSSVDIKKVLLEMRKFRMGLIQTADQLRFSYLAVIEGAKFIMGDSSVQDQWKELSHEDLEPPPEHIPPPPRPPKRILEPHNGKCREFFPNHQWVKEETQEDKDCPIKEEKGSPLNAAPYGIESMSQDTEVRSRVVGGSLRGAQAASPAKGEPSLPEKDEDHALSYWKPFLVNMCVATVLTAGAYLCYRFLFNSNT
pIC50: −log10 of the molar value.
measured-metric: pIC50

A selection of reference data follows.
{"columns": ["compound", "recorded-measurement"],
 "data": [
  ["COc1cc(/C=C/C(=O)O[C@H]2[C@H](Oc3c(O)cc(O)cc3/C=C/c3ccc(O)cc3)O[C@H](CO)[C@@H](O)[C@@H]2O)ccc1O", "< 4.30"],
  ["O=C(O)c1cc(O)cc(O)c1C(=O)Cc1ccc(O)cc1", "< 4.30"]
]}

Let's switch to this compound now.
**Q:** Identify pIC50 associated with the compound OC[C@H]1O[C@@H](Oc2c(O)cc(O)cc2[C@H]2c3c(cc(O)c(O[C@@H]4O[C@H](CO)[C@@H](O)[C@H](O)[C@H]4O)c3/C=C/c3ccc(O)cc3)O[C@@H]2c2ccc(O)cc2)[C@H](O)[C@@H](O)[C@@H]1O
**A:** < 4.30
